- protocol-summary: chemical genetic growth profiling, strain panel (AID 1159580);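 further: tested at 20 µM; growth read once vehicle control cultures reached saturation at 30 °C; 1 = growth at the plate median or of vehicle wells; lower values mean less growth of the strain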
- condition-info: S. cerevisiae deletion strains, growth OD, locus YHR079C, strain IRE1, hits give low values
The whole screen tested about 5,500 compounds, of which about 2,000 (36%) were called active. Roughly 18% stayed inconclusive and do not appear here. This is one part of the list.
A collection of molecules and their measured normalized growth
// print number alone

Observe how each entry below is paired with its result.
> print(dat)
                                   molecule  assay.result
1  CC(=O)N[C@@H]1[C@@H](C(O)[C@H](O)CO)O[C@](O)(C(=O)O)C[C@@H]1O (stereo partly drawn)             1
2                                 CCOC(N)=O         0.983

Look up and report measured normalized growth for this entry: `CCn1cc(C(=O)O)c(=O)c2cnc(N3CCCC3)nc21`
0.998
